Assay: decreased DLD-1 cellular survival, CellTiter-Glo luminescent readout, NPC compound collection, primary HTS (AID 1117346)
Details: DLD-1 viability, CellTiter-Glo luminescence; at 20 µM (top of the series)
Active and inactive are the calls of the source.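 The calls were made as follows: active = compounds that lower survival of DLD-1 colon cancer cells in the luminescence readout, no cutoff given; inactive = the rest.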
Returns: one label drawn from active, inactive

Hi, do you know how CCOC(=O)/C=C(C)/C=C/C=C(C)/C=C/c1c(C)cc(OC)c(C)c1C came out in this test? inactive

Hi, do you know how CCN(CC)C(=O)Nc1ccc(OCC(O)CNC(C)(C)C)c(C(C)=O)c1 (configuration not stated) came out in this test? inactive

Hi, do you know how Cc1cc2c(OCC(CNC(C)(C)C)OC(=O)c3ccccc3)cccc2[nH]1 (configuration not stated) came out in this test? inactive

Hi, do you know how CCCn1cnc2c1c(=O)n(CCCCC(C)=O)c(=O)n2C came out in this test? inactive

Hi, do you know how CCN1CCc2nc(N)oc2CC1 came out in this test? inactive

Hi, do you know how C=CCNC(N)=S came out in this test? inactive

Hi, do you know how N=C(N)N1CCc2ccccc2C1 came out in this test? inactive

Hi, do you know how CC(C)(C)C(=O)OCOC(=O)[C@@H]1N2C(=O)[C@@H](NC(=O)[C@H](N)c3ccccc3)[C@H]2SC1(C)C came out in this test? inactive

Hi, do you know how COc1nccnc1NS(=O)(=O)c1ccc(N)cc1 came out in this test? inactive

Hi, do you know how Nc1ncn([C@H]2C[C@H](O)[C@@H](CO)O2)c(=O)n1 came out in this test? inactive

Hi, do you know how COc1cc(C(=O)N2CCOCC2)cc(OC)c1OC came out in this test? inactive

Hi, do you know how CCCCCCCCCCCCCCC[C@H](O)[C@@H](N)CO came out in this test? active

Hi, do you know how Cc1ccc2nc(N)[nH]c(=O)c2c1Sc1ccncc1 came out in this test? inactive

Hi, do you know how COCCOCC(OC)OC came out in this test? inactive

Hi, do you know how CCN[C@H]1C[C@H](C)S(=O)(=O)c2sc(S(N)(=O)=O)cc21 came out in this test? inactive

Hi, do you know how O=C(O)c1ccc[n+]([O-])c1 came out in this test? inactive

Hi, do you know how CN=C(NC#N)Nc1ccc(C2=NNC(=O)CC2C)cc1 (configuration not stated) came out in this test? inactive

Hi, do you know how Cc1nc2c([nH]1)c(=O)n(C)c(=O)n2Cc1ccco1 came out in this test? inactive

Hi, do you know how COc1cc(C(C)=O)ccc1OCCCN1CCC(c2noc3cc(F)ccc23)CC1 came out in this test? inactive

Hi, do you know how Cc1cccc(C)c1NC(=O)c1ccccc1C(=O)O came out in this test? inactive

Hi, do you know how CSc1ccc(C(=O)c2[nH]c(=O)[nH]c2C)cc1 came out in this test? inactive

Hi, do you know how Cc1cc2c(cc1CC(=O)c1sccc1S(=O)(=O)Nc1onc(C)c1Cl)OCO2 came out in this test? inactive

Hi, do you know how Cc1ncc(CO)c(CO)c1O came out in this test? inactive

Hi, do you know how CC(C)(C)C(=O)OCOP(=O)(COCCn1cnc2c(N)ncnc21)OCOC(=O)C(C)(C)C came out in this test? active

Hi, do you know how CC(C)(C)c1ccc(C(=O)CCCN2CCC(OC(c3ccccc3)c3ccccc3)CC2)cc1 came out in this test? active

Hi, do you know how COc1cc(C)c(C=CC(C)=CC=CC(C)=CC(=O)O)c(C)c1C came out in this test? active

Hi, do you know how CCn1c(=O)c2c(nc(C=Cc3ccc(OC)c(OC)c3)n2C)n(CC)c1=O came out in this test? inactive

Hi, do you know how NS(=O)(=O)c1cc2c(cc1Cl)NC(CC1CCCC1)NS2(=O)=O (configuration not stated) came out in this test? inactive

Hi, do you know how NC(=O)C(c1ccccc1)(c1ccccc1)[C@@H]1CCN(CCc2ccc3c(c2)CCO3)C1 came out in this test? inactive

Hi, do you know how Nc1ccn(C[C@@H](CO)OCP(=O)(O)O)c(=O)n1 came out in this test? inactive

Hi, do you know how NCCNCCNCCN came out in this test? inactive

Hi, do you know how CCOc1nc2cccc(C(=O)O)c2n1Cc1ccc(-c2ccccc2-c2nn[nH]n2)cc1 came out in this test? inactive

Hi, do you know how CCN(CC)CCc1nc(-c2ccccc2)no1 came out in this test? inactive

Hi, do you know how CCN(CC)CCNC(=O)c1c(C)[nH]c(/C=C2\C(=O)Nc3ccc(F)cc32)c1C came out in this test? active

Hi, do you know how CCN(CC)CCNC(C(=O)OCCC(C)C)c1ccccc1 (configuration not stated) came out in this test? inactive

Hi, do you know how CO[C@H]1O[C@@H]2O[C@@]3(C)CC[C@H]4[C@H](C)CC[C@@H]([C@@H]1C)[C@@]24OO3 came out in this test? inactive

Hi, do you know how Oc1c(I)cc(Cl)c2cccnc12 came out in this test? active

Hi, do you know how CC(C)COC(=O)c1ccc(N)cc1 came out in this test? inactive

Hi, do you know how CN1CC[C@H](c2c(O)cc(O)c3c(=O)cc(-c4ccccc4Cl)oc23)[C@H](O)C1 came out in this test? active

Hi, do you know how CC[C@@H](CO)NCCN[C@@H](CC)CO came out in this test? inactive

Hi, do you know how CC(C(=O)O)c1ccc2c(c1)CC(=O)c1ccccc1S2 (configuration not stated) came out in this test? inactive

Hi, do you know how CN(C)CCn1nnnc1SCC1=C(C(=O)O)N2C(=O)[C@@H](NC(=O)Cc3csc(N)n3)[C@H]2SC1 came out in this test? inactive

Hi, do you know how CCN[C@H]1CN(CCCOC)S(=O)(=O)c2sc(S(N)(=O)=O)cc21 came out in this test? inactive

Hi, do you know how COc1nc(N)nc2c1ncn2[C@@H]1O[C@H](CO)[C@@H](O)[C@@H]1O came out in this test? inactive

Hi, do you know how NCCCC(N)(C(=O)O)C(F)F (configuration not stated) came out in this test? inactive

Hi, do you know how COc1cc(NCc2ccc3nc(N)nc(N)c3c2C)cc(OC)c1OC came out in this test? active

Hi, do you know how CC(=O)c1ccc2c(c1)N(CCCN(C)C)c1ccccc1S2 came out in this test? inactive
